assay.method.text: Determination of pharmacokinetic parameters following intravenous and oral administration (rats)
Type: in vivo, male Wistar rats
condition.set: intravenous administration in rats
Procedure: B-6. Determination of Pharmacokinetic Parameters Following Intravenous and Oral Administration The pharmacokinetic parameters of the compounds according to the invention are determined in male CD-1 mice, male Wistar rats and female beagles. […] Since the substance quantification is carried out in plasma, it is necessary to determine the blood/plasma distribution of the substance in order to be able to adjust the pharmacokinetic parameters correspondingly. […]
CLblood under 2 L/h/kg gets MET, anything at or over 2 L/h/kg gets NOT MET.

compound	classification
CCC(C)(N)CNC(=O)c1c(C)nc2c(OCc3c(F)cccc3F)cc(Cl)cn12 (single isomer, unassigned)	MET
Cc1nc2c(OCc3c(F)cccc3F)cc(C(F)F)cn2c1C(=O)NCC(C)(N)CF (single isomer, unassigned; enantiomer b) [Example 292]	NOT MET
Cc1cc(OCc2c(F)cccc2F)c2nc(C)c(C(=O)NCC(C)(N)C3CC3)n2c1 (single isomer, unassigned; enantiomer b)	NOT MET
Cc1nc2c(OCc3c(F)cccc3F)cccn2c1C(=O)NC(CN)CCCC(F)(F)F (racemic)	MET
CCCC(C)(N)CNC(=O)c1c(C)nc2c(OCc3cccc(F)c3F)cc(C)cn12 (racemic)	NOT MET
Cc1cc(OCc2c(F)cccc2F)c2nc(C)c(C(=O)NCC(C)(N)CCC(F)(F)F)n2c1 (single isomer, unassigned) [Example 408]	NOT MET
